Source: patent US20090285773A1

- Assay target: NS3/4A protease complex (UniProt P27958)
- Construct: fused on or other part: three-lysine solubilising tail at the C-terminus of NS4A; probably a His tag from pET21b (Ni-NTA purification)
- Sequence (P27958 1027-1657, one chain of several): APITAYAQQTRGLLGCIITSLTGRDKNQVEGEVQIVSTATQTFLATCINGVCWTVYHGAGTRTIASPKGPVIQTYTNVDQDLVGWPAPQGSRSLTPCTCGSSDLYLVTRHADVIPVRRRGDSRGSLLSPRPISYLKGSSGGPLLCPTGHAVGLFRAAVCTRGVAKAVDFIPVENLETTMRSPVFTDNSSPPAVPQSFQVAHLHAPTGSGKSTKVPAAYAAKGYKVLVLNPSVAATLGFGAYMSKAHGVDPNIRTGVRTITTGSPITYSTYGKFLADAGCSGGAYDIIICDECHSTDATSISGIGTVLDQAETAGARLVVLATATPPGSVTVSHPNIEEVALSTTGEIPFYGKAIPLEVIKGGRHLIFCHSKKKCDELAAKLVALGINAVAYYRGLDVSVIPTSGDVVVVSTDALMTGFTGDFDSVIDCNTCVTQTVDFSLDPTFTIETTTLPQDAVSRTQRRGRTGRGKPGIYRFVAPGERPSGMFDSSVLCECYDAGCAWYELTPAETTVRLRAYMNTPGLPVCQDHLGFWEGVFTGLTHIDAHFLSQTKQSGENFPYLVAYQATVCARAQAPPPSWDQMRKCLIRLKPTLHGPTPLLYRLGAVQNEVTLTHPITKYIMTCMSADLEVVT
- Assay protocol: HCV NS3/4A protease complex enzyme assay (strain not stated)
- Condition summary: Table 2; strain and unit inferred
Each entry below carries its reported pIC50.
pIC50 here is simply -log10 of the concentration when that concentration is written in mol/L.

Solved entries:
>  <Compound>
COc1ccc(N[C@H]2CCCCC/C=C\[C@@H]3C[C@@]3(C(=O)NS(=O)(=O)C3CC3)NC(=O)[C@@H]3C[C@@H](Oc4ncc(OC)c5ccc(Cl)cc45)CN3C2=O)cn1 (single isomer, unassigned) [Compound 2]

>  <pIC50>
8.22

$$$$
>  <Compound>
COc1ccc2c(O[C@@H]3C[C@H]4C(=O)N[C@]5(C(=O)NS(=O)(=O)C6CC6)C[C@H]5/C=C\CCCCC[C@H](Nc5nc(-c6ccc(F)cc6F)cs5)C(=O)N4C3)nccc2c1 [Compound 4]

>  <pIC50>
7.96

$$$$

Per the record, COc1ccc2c(O[C@@H]3C[C@H]4C(=O)N[C@]5(C(=O)NS(=O)(=O)C6CC6)C[C@H]5/C=C\CCCCC[C@H](Nc5nc(-c6ccc(OC(F)(F)F)cc6)cs5)C(=O)N4C3)nccc2c1 [Compound 3] has pIC50 of 8.30

Lab note: COc1cnc(O[C@@H]2C[C@H]3C(=O)N[C@]4(C(=O)NS(=O)(=O)C5CC5)C[C@H]4/C=C\CCCCC[C@H](Nc4nc(-c5ccc(OC(F)(F)F)cc5)cs4)C(=O)N3C2)c2cc(Cl)ccc12 [Compound 6] gave pIC50 of 8.70

Kindly note the recorded pIC50 for COc1ccc2c(O[C@@H]3C[C@H]4C(=O)N[C@]5(C(=O)NS(=O)(=O)C6CC6)C[C@H]5/C=C\CCCCC[C@H](Nc5ccc(OC)nc5)C(=O)N4C3)nccc2c1 (single isomer, unassigned) [Compound 1] , which is 8.15

# pIC50 of COc1ccc2c(O[C@@H]3C[C@H]4C(=O)N[C@]5(C(=O)NS(=O)(=O)C6CC6)C[C@H]5/C=C\CCCCC[C@H](Nc5nc(-c6ccccc6)cs5)C(=O)N4C3)nccc2c1 [Compound 5] = 8.52
